# tgt: T1, ^125I-labeled VEGF165, P15692
# T1 chain: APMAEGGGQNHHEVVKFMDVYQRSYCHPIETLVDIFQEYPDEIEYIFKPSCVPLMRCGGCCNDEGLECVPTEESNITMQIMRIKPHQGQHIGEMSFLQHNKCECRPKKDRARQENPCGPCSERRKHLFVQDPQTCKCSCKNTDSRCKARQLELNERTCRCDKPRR
# measurementNotes: inhibition of 125I-VEGF binding to its receptors on HUVEC, gamma counting
pIC50: −log10 of the molar value.
valueKind: pIC50

Would you please look over these solved cases?
RRKRKR (modifications not checked) [Table 4 peptide 2 (RRKRKR)] ... 5.22
H-RRKRRR-NH2 [peptide of sequence 1 (SEQ ID NO: 1) (NH2-Arg-Arg-Lys-Arg-Arg-Arg-CONH2)] ... 5.70
RKRRKR (modifications not checked) [Table 4 peptide 4 (RKRRKR)] ... 5.07

I. RKKRRR (modifications not checked) [Table 4 peptide 7 (RKKRRR)]
II. H-RKKRKR-NH2 [peptide of sequence 2 (SEQ ID NO: 2) (NH2-Arg-Lys-Lys-Arg-Lys-Arg-CONH2)]
Ask: Which value of pIC50 is numerically greater: that of I or that of II ? Indicate which entry you chose by stating its label.
Result: II
(II: 5.47, I: 5.19)

P. RKRRRR (modifications not checked) [Table 4 peptide 10 (RKRRRR)]
Q. H-RRRRRR-NH2 [peptide of sequence 3 (SEQ ID NO: 3) (NH2-Arg-Arg-Arg-Arg-Arg-Arg-CONH2)]
Ask: Which value of pIC50 is numerically greater: that of P or that of Q ? Indicate which entry you chose by stating its label.
Result: Q
(Q: 5.42, P: 5.11)
